Readings of EC50 for the listed compounds
- target: human RXFP1 (Homo sapiens)
- Construct: expressed in transfected cells
- Sequence (Q9HBX9 whole entry): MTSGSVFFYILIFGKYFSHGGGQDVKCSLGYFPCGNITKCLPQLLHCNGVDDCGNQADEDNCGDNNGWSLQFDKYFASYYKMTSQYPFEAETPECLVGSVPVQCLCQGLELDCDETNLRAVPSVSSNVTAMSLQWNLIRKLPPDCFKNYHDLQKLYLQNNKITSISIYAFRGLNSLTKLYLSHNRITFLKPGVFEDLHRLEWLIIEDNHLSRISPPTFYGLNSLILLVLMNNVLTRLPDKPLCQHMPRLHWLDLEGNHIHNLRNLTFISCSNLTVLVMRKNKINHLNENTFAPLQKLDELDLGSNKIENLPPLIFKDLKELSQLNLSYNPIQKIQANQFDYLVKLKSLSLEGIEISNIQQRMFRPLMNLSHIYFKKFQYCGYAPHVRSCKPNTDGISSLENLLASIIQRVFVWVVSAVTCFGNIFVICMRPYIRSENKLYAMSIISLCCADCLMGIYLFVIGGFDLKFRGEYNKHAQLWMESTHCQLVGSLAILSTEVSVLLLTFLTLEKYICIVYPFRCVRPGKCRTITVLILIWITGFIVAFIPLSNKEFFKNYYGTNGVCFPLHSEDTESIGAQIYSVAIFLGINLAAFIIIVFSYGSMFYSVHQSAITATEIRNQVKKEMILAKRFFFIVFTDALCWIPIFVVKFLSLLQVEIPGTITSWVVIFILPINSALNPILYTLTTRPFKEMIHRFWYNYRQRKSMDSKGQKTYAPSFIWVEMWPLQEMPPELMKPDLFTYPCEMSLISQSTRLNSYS
- assay name: RXFP1 cAMP assay (hRXFP1 HEK293 cAMP assay, HTRF)
- Type: cell-based
- condition details: HEK293 cells stably expressing human RXFP1, 30 min at room temperature, read-out: cAMP hRXFP1 HEK293 Assay EC50
Report the figure in nM without appending any unit label.

Answered cases to consult:
compound | EC50 [nM]
COc1ccc(C2=NOC3COCC23)cc1C(=O)N[C@H]1[C@@H](C(=O)NC2CCC(C(F)(F)F)C2)[C@H]2CC[C@@H]1/C2=C\C1CC1 (single isomer, unassigned) [Example 589] | 83.5
COc1ccccc1NC(=O)OC(c1ccc(F)c(-c2ccc(OC)c(C(=O)N[C@@H]3C4CCC(/C4=C/C4CC4)[C@@H]3C(=O)Nc3ccc(F)c(C(F)(F)F)c3)c2)c1)C(F)(F)F (stereo partly shown) | 3
COc1ccc(-c2cccc3c2CN(C(=O)C(C)(C)O)C3)cc1C(=O)N[C@@H]1C2CCC(/C2=C/C2CC2)[C@@H]1C(=O)Nc1ccc(F)c(C(F)(F)F)c1 (stereo partly shown) | 8.5

Q. human RXFP1 (Homo sapiens) / EC50 / COc1ccc(C2=NO[C@H]3CC(CO)C[C@@H]23)cc1C(=O)N[C@H]1[C@@H](C(=O)Nc2ccc(F)c(C(F)(F)F)c2)[C@H]2CC[C@@H]1/C2=C\CCC1CC1 (stereo partly shown) : value?
A. 2.9

Q. What would you report for COc1ccc(C2CCCN2)cc1C(=O)N[C@@H]1C2CCC(C2=CC2CC2)[C@@H]1C(=O)Nc1ccc(F)c(C(F)(F)F)c1 (stereo partly shown) [compound 703] ?
A. 1190

Q. Item: COc1ccc(-c2cccc(OC(F)(F)F)c2)cc1C(=O)N[C@@H]1C2CCC(/C2=C/C2CC2)[C@@H]1C(=O)Nc1ccc(F)c(C(F)(F)F)c1 (stereo partly shown)
A. 15

Q. Same for O=C(N[C@H]1[C@@H](C(=O)Nc2ccc(F)c(C(F)(F)F)c2)[C@H]2CC[C@@H]1/C2=C\C1CC1)c1cc(C2=NOC3CC(CO)CC23)ccc1F (single isomer, unassigned) [compound 723]
A. 4980

Q. # repeat for COc1ccc(-c2cc(C(OC(=O)NC3CCC3)C(F)F)ccc2F)cc1C(=O)N[C@H]1[C@@H](C(=O)Nc2ccc(F)c(C(F)(F)F)c2)[C@H]2CC[C@@H]1/C2=C\C1CC1 (single isomer, unassigned)
A. 1

Q. Same again, this time with CC[C@@H](NC(=O)[C@@H]1[C@H](NC(=O)c2cc(C3=NOC4COCC34)ccc2OC)[C@@H]2CC[C@H]1/C2=C/C1CC1)C1CCC1 (stereo partly shown)
A. 70.8

Q. And the next one, CCOC(=O)c1coc(-c2ccc(OC)c(C(=O)N[C@@H]3C4CCC(C4=C(C)C)[C@@H]3C(=O)Nc3ccc(F)c(C(F)(F)F)c3)c2)n1 (stereo partly shown) ?
A. 800
